system: H9; assay: Concentration which inhibited HIV-1 replication by 50% in acutely infected H9 cells; type: functional, cell-based; settings: Homo sapiens
TEST_READOUT: log10(EC50) (log10 of the value in µg/mL)
The figures below represent log10 of EC50, where EC50 is stated in µg/mL.

>  <COMPOUND_STRUCTURE>
COc1ccc(C[C@@H]2COC(=O)[C@H]2Cc2ccc(O)cc2)cc1OC

>  <log10(EC50)>
-0.60

$$$$
>  <COMPOUND_STRUCTURE>
COc1cc(C[C@@H]2C(=O)OC[C@H]2Cc2ccc(OC)c(OC)c2)ccc1O

>  <log10(EC50)>
-0.80

$$$$

Batch: log10(EC50) for all items listed.
1. COc1ccc(C[C@@H]2COC(=O)[C@H]2Cc2ccccc2)cc1OC
2. COc1ccc(C[C@@H]2COC(=O)C2)cc1OC
3. COc1ccc(C[C@@H]2COC(=O)[C@H]2Cc2cccc(O)c2)cc1OC

Result:
[0.34, 1.53, 0.26]

Task: GET /values?readout=log10(EC50)&item= "COc1ccc(C[C@@H]2COC(=O)[C@H]2Cc2ccc(O)c(O)c2)cc1OC"
Result: 0.18

The values you see were collected from ChEMBL document CHEMBL1151590.
